Test system: NCI/ADR-RES
assay_method_text: Cytotoxicity against human NCI/ADR-RES cells assessed as cell growth at 10 uM after 48 hrs by SRB assay relative to control
Format: functional
reported_conditions: read-out: Activity
experimental_endpoint: growth at 10 µM (%)
Field: numeric (%). Do not append units.

// lookup growth at 10 µM | system=NCI/ADR-RES | key= CCOC(=O)CCCn1c2c(c(C)c1-c1ccccc1)C1=NC(=O)CN1C(SC)=N2
95

Request: growth at 10 µM, test system NCI/ADR-RES, entry CSC1=Nc2c(c(C)c(-c3ccccc3)n2CCCN2CCCCC2)C2=NC(=O)CC(C)N12 (centres undefined)
82

Request - read-out growth at 10 µM | tested on NCI/ADR-RES | compound CCOC(=O)CCCn1c(C)c(C)c2c1N=C(SC)N1CC(=O)N=C21
112

Query for NCI/ADR-RES: what growth at 10 µM does the record show for COC(=O)C(Cc1cnc[nH]1)NC(=O)CCCn1c(C)c(C)c2c1N=C(SC)N1CC(=O)N=C21 (centres undefined) ?
110

Lab request: please report growth at 10 µM under test system NCI/ADR-RES for CSC1=Nc2c(c(C)c(-c3ccccc3)n2CCCN2CCN(C)CC2)C2=NC(=O)CN12
98

// map CSC1=Nc2c(c(C)c(C)n2CCCC(=O)NCCc2cnc[nH]2)C2=NC(=O)CN12 to recorded growth at 10 µM (system: NCI/ADR-RES)
110

// fetch NCI/ADR-RES growth at 10 µM for CSC1=Nc2c(c(C)c(-c3ccccc3)n2CCCCl)C2=NC(=O)CN12
58

I'm curious: which growth at 10 µM was measured for CSC1=Nc2c(c(C)c(-c3ccccc3)n2CCCC(=O)O)C2=NC(=O)CN12 tested on NCI/ADR-RES?
98

What is its growth at 10 µM for NCI/ADR-RES? Entry: CSC1=Nc2c(c(C)c(C)n2CCCC(=O)O)C2=NC(=O)CN12
114

----------
System: SNB-75
assay_method_text: Cytotoxicity against human SNB75 cells assessed as cell growth at 10 uM after 48 hrs by SRB assay relative to control
Type: functional
reported_conditions: SNB-75, 48 h, read-out: Activity
Kindly apply the following: Condition met if growth at 10 µM is less than 80%, Condition not met in every other case.

In the record for CSC1=Nc2c(c(C)c(-c3ccccc3)n2CCCCl)C2=NC(=O)CN12 , is growth at 10 µM less than 80%?
Condition met

Say whether its growth at 10 µM is strictly beneath 80%. Entry: CSC1=Nc2c(c(C)c(C)n2CCCC(=O)O)C2=NC(=O)CN12
Condition not met

Strictly below 80%: is that where growth at 10 µM of CSC1=Nc2c(c(C)c(-c3ccccc3)n2CCCC(=O)O)C2=NC(=O)CN12 sits?
Condition not met

Hello, is growth at 10 µM of the following compound strictly smaller than 80%? CCOC(=O)CCCn1c(C)c(C)c2c1N=C(SC)N1CC(=O)N=C21
Condition not met

Is 80% strictly greater than the compound's reported growth at 10 µM? compound: CSC1=Nc2c(c(C)c(-c3ccccc3)n2CCCN2CCN(C)CC2)C2=NC(=O)CN12
Condition met

Bench note: check whether CSC1=Nc2c(c(C)c(-c3ccccc3)n2CCCN2CCCCC2)C2=NC(=O)CC(C)N12 (centres undefined) shows growth at 10 µM below 80%
Condition met

----------
Tested on: NCI-H522
assay_method_text: Cytotoxicity against human NCI-H522 cells assessed as cell growth at 10 uM after 48 hrs by SRB assay relative to control
Assay type: functional
reported_conditions: NCI-H522, 48 h, read-out: Activity
Decide using growth at 10 µM: a value greater than or equal to 80% is met, a smaller one is not met.

Hello, I need to know if CSC1=Nc2c(c(C)c(-c3ccccc3)n2CCCCl)C2=NC(=O)CN12 has measured growth at 10 µM not below 80%. Thanks!
not met

Check if growth at 10 µM >= 80% (inclusive). Item: CCOC(=O)CCCn1c2c(c(C)c1-c1ccccc1)C1=NC(=O)CN1C(SC)=N2
met

For this compound, is measured growth at 10 µM 80% or higher? CSC1=Nc2c(c(C)c(C)n2CCCC(=O)NCCc2cnc[nH]2)C2=NC(=O)CN12
met

Check this compound for growth at 10 µM at or above 80%: COC(=O)C(Cc1cnc[nH]1)NC(=O)CCCn1c(C)c(C)c2c1N=C(SC)N1CC(=O)N=C21 (stereo not given)
met

# check: growth at 10 µM of CSC1=Nc2c(c(C)c(C)n2CCCC(=O)O)C2=NC(=O)CN12 is greater than or equal to 80%
met

----------
Answer each item with its documented growth at 10 µM.
Tested on: K562
assay_method_text: Cytotoxicity against human K562 cells assessed as cell growth at 10 uM after 48 hrs by SRB assay relative to control
Format: functional
reported_conditions: K562, 48 h, read-out: Activity
Numbers only here, please. The scale is %.

Which value of growth at 10 µM has been reported for CCOC(=O)CCCn1c(C)c(C)c2c1N=C(SC)N1CC(=O)N=C21 in the records?
94

What value of growth at 10 µM has been reported for the following compound? CSC1=Nc2c(c(C)c(-c3ccccc3)n2CCCCl)C2=NC(=O)CN12
19

Please look up its growth at 10 µM: CCOC(=O)CCCn1c2c(c(C)c1-c1ccccc1)C1=NC(=O)CN1C(SC)=N2
90

Bench note: what growth at 10 µM did COC(=O)C(Cc1cnc[nH]1)NC(=O)CCCn1c(C)c(C)c2c1N=C(SC)N1CC(=O)N=C21 (centres undefined) show?
97

----------
Task for the reader: assign each of the following compounds its reported growth at 10 µM.
Test system: NCI-H322M
assay_method_text: Cytotoxicity against human NCI-H322M cells assessed as cell growth at 10 uM after 48 hrs by SRB assay relative to control
Type: functional
reported_conditions: read-out: Activity
Provide only the numeric value, understood in %.

If you can, please state the reported growth at 10 µM value of CCOC(=O)CCCn1c(C)c(C)c2c1N=C(SC)N1CC(=O)N=C21 .
111

Fill in the blank: the reported growth at 10 µM of CSC1=Nc2c(c(C)c(-c3ccccc3)n2CCCCl)C2=NC(=O)CN12 is ____.
82

Item under review: COC(=O)C(Cc1cnc[nH]1)NC(=O)CCCn1c(C)c(C)c2c1N=C(SC)N1CC(=O)N=C21 (centres undefined) . Reported growth at 10 µM?
105

Dear colleague, I am looking for the recorded growth at 10 µM of the following compound: CSC1=Nc2c(c(C)c(-c3ccccc3)n2CCCC(=O)O)C2=NC(=O)CN12
131

# growth at 10 µM lookup, item CCOC(=O)CCCn1c2c(c(C)c1-c1ccccc1)C1=NC(=O)CN1C(SC)=N2
108

Report growth at 10 µM for CSC1=Nc2c(c(C)c(C)n2CCCC(=O)O)C2=NC(=O)CN12 please.
112

Dear colleague, I am looking for the recorded growth at 10 µM of the following compound: CSC1=Nc2c(c(C)c(C)n2CCCC(=O)NCCc2cnc[nH]2)C2=NC(=O)CN12
111

Which growth at 10 µM is reported for this compound? CSC1=Nc2c(c(C)c(-c3ccccc3)n2CCCN2CCCCC2)C2=NC(=O)CC(C)N12 (centres undefined)
62

Recorded growth at 10 µM for CSC1=Nc2c(c(C)c(-c3ccccc3)n2CCCN2CCN(C)CC2)C2=NC(=O)CN12 , please?
97

----------
Tested on: UO-31
assay_method_text: Cytotoxicity against human UO31 cells assessed as cell growth at 10 uM after 48 hrs by SRB assay relative to control
Format: functional
reported_conditions: UO-31, 48 h, read-out: Activity
Could you please mark 1.0 for values of growth at 10 µM below 80% and 0.0 for values at or above it?

Strictly below 80%: is that where growth at 10 µM of CSC1=Nc2c(c(C)c(C)n2CCCC(=O)O)C2=NC(=O)CN12 sits?
0.0

Is growth at 10 µM of CCOC(=O)CCCn1c2c(c(C)c1-c1ccccc1)C1=NC(=O)CN1C(SC)=N2 strictly below 80%?
0.0

Dear reviewer, please state whether CSC1=Nc2c(c(C)c(C)n2CCCC(=O)NCCc2cnc[nH]2)C2=NC(=O)CN12 has growth at 10 µM strictly beneath 80%.
0.0

In plain terms, does COC(=O)C(Cc1cnc[nH]1)NC(=O)CCCn1c(C)c(C)c2c1N=C(SC)N1CC(=O)N=C21 (centres undefined) come in under 80% for growth at 10 µM?
0.0

Does CSC1=Nc2c(c(C)c(-c3ccccc3)n2CCCCl)C2=NC(=O)CN12 have growth at 10 µM strictly under 80%?
1.0

Input CSC1=Nc2c(c(C)c(-c3ccccc3)n2CCCN2CCCCC2)C2=NC(=O)CC(C)N12 (centres undefined) ; condition: growth at 10 µM strictly below 80%. Does it hold?
1.0
